- System: Toxoplasma gondii RH (in HFF)
- EXPERIMENT DESCRIPTION: parasite growth relative to the screen mean (all compounds = 100%); higher = less inhibition of parasite growth
- STUDY CONDITIONS: 5 µM; 72 h; oxygen 21 %
Counter-ions that a name gives are not always drawn.
Answer each item with its documented parasite growth.
Answers are plain numbers, in %.

These recorded examples may help you get a feel for the data.
>>> reported_measurement("CC(=O)O[C@@H]1C[C@H]2C(C)(C)C(=O)C=C[C@]2(C)[C@H]2CC[C@@]3(C)[C@H](c4ccoc4)OC(=O)[C@H]4O[C@]43[C@@]21C")
62.3
>>> reported_measurement("COc1cc(/C=C(\\C#N)C(N)=O)cc(CSc2nc3ccccc3s2)c1O")
128
>>> reported_measurement("O=C(OCCN1CCCCC1)c1c[nH]c2ccccc12")
113

Lab note: each compound below needs its parasite growth filled in.
1. COC(=O)[C@@H]1[C@H]2C[C@H]3c4[nH]c5ccccc5c4CCN3C[C@@H]2CC[C@@H]1O [Yohimbine hydrochloride]
2. CC1CCN(CC[C@H]2CCCN2S(=O)(=O)c2cccc(O)c2)CC1

184
120

Lab note: each compound below needs its parasite growth filled in.
1. C/N=C(/NC#N)NCCSCc1csc(NC(=N)N)n1
2. CC(C)NCC(O)COc1ccc(CCOCC2CC2)cc1 (centres undefined) [Betaxolol hydrochloride]
3. COc1ccc(CCN(C)CCCN2CCc3cc(OC)c(OC)cc3CC2=O)cc1OC [Zatebradine hydrochloride]
4. Cn1ccc2cc(NC(=O)Nc3cccnc3)ccc21
5. COc1[nH]c2ccc(F)cc2c1C(=O)OCC1CCN(CCNS(C)(=O)=O)CC1.NS(=O)(=O)O
6. Cc1c(C(=O)N(C)C2CCCCC2)sc2nc3ccc(N)cc3n12
7. N[C@@H](C(=O)O)c1ccc(C(=O)O)c(C(=O)O)c1

1: 122; 2: 89.4; 3: 103; 4: 129; 5: 80.2; 6: 185; 7: 117

Lab note: each compound below needs its parasite growth filled in.
1. COc1ccc(-c2nc(C(=O)N3CCN(C)CC3)sc2-c2ccc(OC)cc2)cc1
2. O=C(/C=C/c1ccc(O)c(O)c1)O[C@H](Cc1ccc(O)c(O)c1)C(=O)O
3. COc1cc(N)c(Cl)cc1C(=O)NC1CCN(CCCOc2ccc(F)cc2)CC1OC (centres undefined) [Cisapride]
4. CC1(C)Oc2ccc(C#N)cc2[C@@H](N2CCCC2=O)[C@@H]1O

1: 112; 2: 110; 3: 20.8; 4: 158

Lab note: each compound below needs its parasite growth filled in.
1. Cc1cc(/C(=C/Nc2ccc(Cl)cc2)C(=O)Nc2ccc(Cl)cc2)on1
2. CN1C(C(=O)Nc2ccccn2)=C(O)c2ccccc2S1(=O)=O
3. COc1ccccc1N1CCN(CCCCN2C(=O)c3ccccc3C2=O)CC1 [NAN-190 hydrobromide]

[139, 153, 133]

----------
- System: Toxoplasma gondii RH (in HFF)
- EXPERIMENT DESCRIPTION: parasite growth relative to the screen mean (all compounds = 100%); higher = less inhibition of parasite growth
- STUDY CONDITIONS: 5 µM; 72 h; oxygen 21 %
Structures can show the parent of a compound that is named as a salt.
READOUT TYPE: parasite growth (%)
One number for each entry, in %.

These recorded examples may help you get a feel for the data.
>>> reported_measurement("c1nc(CC2CCNCC2)c[nH]1 [Immepip dihydrobromide]")
100
>>> reported_measurement("CC(C)NCC(O)c1ccc(O)c(O)c1 (stereo unspecified) [Isoproterenol hydrochloride]")
172
>>> reported_measurement("O=C1CC2(CCCC2)CC(=O)N1CCCCNCC1COc2ccccc2O1 (stereo unspecified)")
156
>>> reported_measurement("Brc1c(NC2=NCCN2)ccc2nccnc12")
128
>>> reported_measurement("Cc1cccc(Nc2cc(Cl)nc(SCC(=O)O)n2)c1C")
109

Now consider a different compound.
Tell me its parasite growth given CCCN(CC1CC1)c1nc(C)nc(Nc2c(Cl)cc(Cl)cc2Cl)c1Cl as the entry.
116

----------
- Test system: Toxoplasma gondii RH (in HFF)
- EXPERIMENT DESCRIPTION: parasite growth relative to the screen mean (all compounds = 100%); higher = less inhibition of parasite growth
- STUDY CONDITIONS: 5 µM; 72 h; oxygen 21 %
Structures can show the parent of a compound that is named as a salt.
READOUT TYPE: parasite growth (%)
Numbers only, in %.

>>> reported_measurement("COc1cc2c(cc1OC)-c1c/c(=N\\c3c(C)cc(C)cc3C)n(C)c(=O)n1CC2 [Trequinsin hydrochloride]")
124
>>> reported_measurement("CNCCCC12CCC(c3ccccc31)c1ccccc12 [Maprotiline hydrochloride]")
54.1
>>> reported_measurement("c1ccc2cc(C3=NCCN3)ncc2c1 [BU 226 hydrochloride]")
126
>>> reported_measurement("N#Cc1cc2nc(O)c(O)nc2cc1[N+](=O)[O-] [CNQX disodium salt]")
133
>>> reported_measurement("c1ccc(C(O[C@@H]2CCCN(CCc3ccc4c(c3)OCO4)C2)c2ccccc2)cc1 [Zamifenacin fumarate]")
128
>>> reported_measurement("CCCCN1CCCC1CNC(=O)c1cc(C#N)c2ccccc2c1OC (configuration not stated) [Nafadotride]")
127
>>> reported_measurement("CC(Cc1ccc(O)c(O)c1)(NN)C(=O)O [(S)-(-)-Carbidopa]")
147
>>> reported_measurement("Cc1cc(C)c(S(=O)(=O)Nc2ccccc2C(F)(F)F)c(C)c1")
145
>>> reported_measurement("CC1CCN(CCCC(=O)c2ccc(F)cc2)CC1 [Melperone hydrochloride]")
126
>>> reported_measurement("O=C(Nc1ccc(C(F)(F)F)cn1)N1CCN(c2ncccc2C(F)(F)F)CC1")
135

Lab note: each compound below needs its parasite growth filled in.
1. CC(C)NCC(O)c1ccc2ccccc2c1 (configuration not stated) [Pronethalol hydrochloride]
2. CCc1cc(-c2n[nH]c(C)c2-c2ccc3c(c2)OCCO3)c(O)cc1O
3. OC[C@H]1O[C@@H](n2cnc3c(NC4CCCC4)ncnc32)[C@H](O)[C@@H]1O

1: 117; 2: 215; 3: 77.4

----------
Answer each item with its documented parasite growth.
- Test system: Toxoplasma gondii RH (in HFF)
- EXPERIMENT DESCRIPTION: parasite growth relative to the screen mean (all compounds = 100%); higher = less inhibition of parasite growth
- STUDY CONDITIONS: 5 µM; 72 h; oxygen 21 %
Structures can show the parent of a compound that is named as a salt.

>>> reported_measurement("C1COC(NC(C2CC2)C2CC2)=N1 [Rilmenidine hemifumarate]")
"125%"

Lab note: each compound below needs its parasite growth filled in.
1. Cc1nc2c(O)cccc2c(=O)[nH]1
2. CCN(CC)CCOc1ccc(Cc2ccccc2)cc1 [DPPE fumarate]
3. Clc1ccc2nsnc2c1NC1=NCCN1 [Tizanidine hydrochloride]
4. OC(CN1CCN(c2cccc(Cl)c2)CC1)C(c1ccccc1)c1ccccc1 (centres undefined)

122%
75.7%
113%
147%

Lab note: each compound below needs its parasite growth filled in.
1. CN1CC(=O)N=C1NC(=O)Nc1cccc(Cl)c1
2. Cc1ccc2c(c1)C(=O)C1(O)CCN(c3ccccc3)C1=N2 (racemic) [(±)-Blebbistatin]
3. COc1cc2c(CCNC(C)=O)c[nH]c2cc1Cl
4. Cc1cc(C)c(/C=C2\C(=O)Nc3ccccc32)[nH]1
5. N=C(N)SCCc1ccc(OCc2ccc([N+](=O)[O-])cc2)cc1 [KB-R7943 mesylate]
6. O=c1cc(N2CCOCC2)oc2c(-c3ccccc3)cccc12

134%
161%
131%
198%
< 0%
129%

Lab note: each compound below needs its parasite growth filled in.
1. CN(C)CCCSc1ccccc1NC(=O)/C=C/c1ccccc1 [Cinanserin hydrochloride]
2. Cc1c(OCC(F)(F)F)ccnc1C[S+]([O-])c1nc2ccccc2[nH]1 (centres undefined)
3. CC(=O)N1CCN(c2ccc(OCC3COC(Cn4ccnc4)(c4ccc(Cl)cc4Cl)O3)cc2)CC1 (centres undefined)
4. CCCCC[C@H](O)/C=C/[C@H]1[C@H](O)CC(=O)[C@@H]1C/C=C\CCCC(=O)O [Prostaglandin E2]
5. CCSC(=N)N [EIT hydrobromide]

1. 120%
2. 124%
3. 186%
4. 122%
5. 166%

Lab note: each compound below needs its parasite growth filled in.
1. CC1CCN=C(N)S1 (centres undefined) [AMT hydrochloride]
2. CCN(CC)CCOC(=O)C1(c2ccc([N+](=O)[O-])cc2)CCCC1 [Nitrocaramiphen hydrochloride]
3. CCOc1cc(CC(=O)N[C@@H](CC(C)C)c2ccccc2N2CCCCC2)ccc1C(=O)O [Repaglinide]

70.6%
99.3%
150%

Lab note: each compound below needs its parasite growth filled in.
1. Nc1ncnc2c1nc(Br)n2[C@@H]1O[C@@H]2COP(=O)(O)O[C@H]2[C@H]1O [8-Bromo-cAMP, sodium salt]
2. CC(C)N(CCC(=O)c1ccc2ccccc2c1)Cc1ccccc1
3. Nc1ccc(-c2cccc3c(=O)cc(N4CCOCC4)oc23)cc1
4. CC#C[C@]1(O)CC[C@H]2[C@@H]3CCC4=CC(=O)CCC4=C3[C@@H](c3ccc(N(C)C)cc3)C[C@@]21C

1. 125%
2. 77.6%
3. 104%
4. 135%

Lab note: each compound below needs its parasite growth filled in.
1. CCCn1c(=O)c2[nH]c(C3CCCC3)nc2n(CCC)c1=O
2. COc1cc2c(cc1O)CC[C@@H]1[C@@H]2CC[C@]2(C)[C@@H](O)CC[C@@H]12
3. Cn1cc(C(=O)OCC2CCN(CCNS(C)(=O)=O)CC2)c2ccccc21

1: 103%; 2: 174%; 3: 123%

Lab note: each compound below needs its parasite growth filled in.
1. Cc1cccc(C)c1OCC(C)N (centres undefined) [Mexiletine hydrochloride]
2. COc1ccc(CC(C)NCC(O)c2ccc(O)c(NC=O)c2)cc1 (centres undefined) [Formoterol hemifumarate]
3. CCS(=O)(=O)N(C)[C@H]1c2cc(C#N)ccc2OC(C)(C)[C@@H]1O (racemic) [Chromanol 293B]
4. CC1(C)Oc2ccc(C#N)cc2[C@H](N2CCCC2=O)[C@H]1O
5. CN(C)CCCCSC(=N)N

1: 142%; 2: 126%; 3: 142%; 4: 127%; 5: 93.3%

Lab note: each compound below needs its parasite growth filled in.
1. CNS(=O)(=O)Cc1ccc2[nH]cc(CCN(C)C)c2c1 [Sumatriptan succinate]
2. N#C/C(=C\c1ccc(O)c(O)c1)C(=O)NCCCCc1ccccc1
3. CC1=C(CC(=O)O)c2cc(F)ccc2/C1=C\c1ccc([S+](C)[O-])cc1 (centres undefined)
4. CCCN(C/C=C/I)C1CCc2cccc(O)c2C1 (centres undefined) [8-Hydroxy-PIPAT oxalate]
5. Cc1ccccc1C(=O)c1ccc(Nc2ccc(Br)cc2N)cc1Cl
6. CCCCNC(=O)[C@@H]1Cc2ccccc2N1C(=O)[C@@H](N)CC [Butabindide oxalate]
7. Oc1ccc(-c2c(-c3ccccc3)nn3c(C(F)(F)F)cc(C(F)(F)F)nc23)cc1
8. CCC(C)N(C)C(=O)c1cc2ccccc2c(-c2ccccc2Cl)n1 (centres undefined)

76.2%
155%
183%
190%
172%
130%
170%
85.5%

Just for reference, the supplement of paper PMC4894684 is where these values come from.
